# credit: ChEMBL document CHEMBL4196159

test.details: Volume of distribution at steady state in rat at 0.5 mg/kg, iv or 1 mg/kg, po
Type: ADME, organism-based
condition: in vivo, read-out: Vdss
measurement.type: Vd (L/kg)
State just the number; it will be interpreted in L/kg.

The reported value for COCc1ccc(-c2ccc3nnc(C(N)=O)c(N[C@@H](C)C4CCOCC4)c3c2)cn1 in terms of Vd is 0.7

* * *

test.details: Oral bioavailability in rat at 1 mg/kg
Assay type: ADME, organism-based
condition: in vivo
measurement.type: bioavailability (%)
Supply the numeric figure in %, leaving out any unit text.

Kindly note the recorded bioavailability for COCc1ccc(-c2ccc3nnc(C(N)=O)c(N[C@@H](C)C4CCOCC4)c3c2)cn1 , which is 56
